# targetUnderTest: PI3K alfa (Homo sapiens)
# Construct: His tag (C); made in house; host or cells: baculovirus BV1075; Tn5 (Trichoplusia ni) or TiniPro insect cells
# Sequence (P42336 with tags, fused parts or gaps limits assumed): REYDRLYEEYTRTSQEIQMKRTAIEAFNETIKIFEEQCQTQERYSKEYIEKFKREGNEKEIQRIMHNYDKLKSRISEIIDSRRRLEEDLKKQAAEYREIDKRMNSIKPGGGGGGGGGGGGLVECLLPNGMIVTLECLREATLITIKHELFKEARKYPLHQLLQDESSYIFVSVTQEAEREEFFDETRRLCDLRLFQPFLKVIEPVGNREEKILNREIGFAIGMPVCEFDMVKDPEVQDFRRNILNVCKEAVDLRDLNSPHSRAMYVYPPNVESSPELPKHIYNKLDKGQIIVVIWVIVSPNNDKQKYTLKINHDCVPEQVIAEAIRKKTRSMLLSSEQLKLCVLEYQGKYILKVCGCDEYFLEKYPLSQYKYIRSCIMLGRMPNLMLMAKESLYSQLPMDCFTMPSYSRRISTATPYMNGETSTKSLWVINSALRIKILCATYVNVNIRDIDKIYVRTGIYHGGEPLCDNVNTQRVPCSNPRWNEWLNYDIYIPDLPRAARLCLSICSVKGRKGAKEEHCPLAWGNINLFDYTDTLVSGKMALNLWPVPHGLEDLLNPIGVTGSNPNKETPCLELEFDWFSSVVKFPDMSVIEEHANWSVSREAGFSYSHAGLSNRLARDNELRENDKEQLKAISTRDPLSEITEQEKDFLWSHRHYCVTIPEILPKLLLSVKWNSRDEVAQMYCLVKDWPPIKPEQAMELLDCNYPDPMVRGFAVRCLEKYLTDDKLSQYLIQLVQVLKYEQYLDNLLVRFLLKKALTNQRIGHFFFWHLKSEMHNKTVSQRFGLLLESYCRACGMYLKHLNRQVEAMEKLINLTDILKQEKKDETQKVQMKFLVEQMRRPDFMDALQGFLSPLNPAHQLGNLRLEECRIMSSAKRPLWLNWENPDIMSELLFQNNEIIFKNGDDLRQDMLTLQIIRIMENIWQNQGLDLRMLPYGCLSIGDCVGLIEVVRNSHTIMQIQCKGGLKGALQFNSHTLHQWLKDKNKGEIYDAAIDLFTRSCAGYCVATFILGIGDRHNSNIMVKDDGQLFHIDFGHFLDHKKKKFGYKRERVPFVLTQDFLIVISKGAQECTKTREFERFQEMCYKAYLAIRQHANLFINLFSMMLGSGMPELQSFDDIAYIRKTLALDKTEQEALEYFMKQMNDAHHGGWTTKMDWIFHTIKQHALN
# measurementDescription: PI3K alpha kinase assay (Kinase-Glo luminescence)
# Type: biochemical
# studyConditions: read-out: EPK_PI3Kalfa/IC50
pIC50: −log10 of the molar value.
metricName: pIC50

(1) CNc1ncc(-c2ccc3ncc4c(c3c2)n(-c2ccc(OCCOC)nc2C)c(=O)n4C)cn1
(2) CCNc1cc(-c2ccc3ncc4c(c3c2)n(-c2cccnc2C)c(=O)n4C)cnc1CO
(3) Cc1nc(N2CC[C@H](O)C2)ccc1-n1c(=O)n(C)c2cnc3ccc(-c4cncc(OC(C)C)c4)cc3c21
(4) CNc1ncc(-c2ccc3ncc4c(c3c2)n(-c2ccc(NC(=O)COC)nc2C)c(=O)n4C)cn1
(5) CNc1ncc(-c2ccc3ncc4c(c3c2)n(-c2ccc(C(F)(F)F)nc2C)c(=O)n4C)cc1COC
Inquiry: Which order do the items above take when sorted by pIC50 from high to low? Your task in answering is to list the labels in the requested order.
Reply text: 2, 5, 1, 3, 4
(2: 7.85, 5: 7.57, 1: 7.37, 3: 7.15, 4: 6.91)

---

# Tested on: PKB Ser473 phosphorylation in Rat1-myr-HA-p110 beta cells
# measurementDescription: Reverse protein array, PKB Ser473 phosphorylation in Rat1-myr-HA-p110 beta cells
# Assay type: cell-based
# studyConditions: Rattus norvegicus, 0.5 h, 30 minutes compound incubation, read-out: p-PKB/IC50_beta
pIC50: −log10 of the molar value.
metricName: pIC50

* Cc1nc(N2CC[C@@H](O)C2)ccc1-n1c(=O)n(C)c2cnc3ccc(-c4cncc(C(C)(C)C#N)c4)cc3c21 | 7.51

(A) CNc1ncc(-c2ccc3ncc4c(c3c2)n(-c2ccc(F)nc2C)c(=O)n4C)cc1F
(B) Cc1cccnc1-n1c(=O)n(C)c2cnc3ccc(-c4cnc5ccccc5c4)cc3c21
Inquiry: Which is greater in pIC50, the first item A or the second item B ? Lab note: record the label of whichever item you select.
Reply text: A
(A: 7.87, B: 6.97)

(P) COc1ccc(-n2c(=O)n(C)c3cnc4ccc(-c5cnc(C(OC)OC)c(OC)c5)cc4c32)c(OC)n1
(Q) COc1ncccc1-n1c(=O)n(C)c2cnc3ccc(-c4cnc5c(ccn5C)c4)cc3c21
Inquiry: Select the item whose pIC50 value is smaller, choosing between P and Q . Return value: the label identifying the chosen record.
Reply text: P

---

# measurementDescription: High-throughput equilibrium solubility at pH 6.8
# Format: physicochemical
# studyConditions: pH 6.8, aqueous buffer, thermodynamic from solid; read-out: HT-Eq Sol/pH 6.8
metricName: solubility thermodynamic (µg/mL)

(A) COc1ccc(-n2c(=O)n(C)c3cnc4ccc(-c5cnc(N(C)C)nc5)cc4c32)c(Cl)n1
(B) Cc1nc(N2CC[C@H](O)C2)ccc1-n1c(=O)n(C)c2cnc3ccc(-c4cncc(OC(C)C)c4)cc3c21
Inquiry: Two entries are listed, A and B . Which one carries the higher solubility thermodynamic? Please reply using the label of the selected record.
Reply text: B

(P) CCOc1ncc(-c2ccc3ncc4c(c3c2)n(-c2ncccc2C)c(=O)n4C)cn1
(Q) COc1ccc(-c2ccc3ncc4c(c3c2)n(-c2cccnc2C)c(=O)n4C)cn1
(R) Cc1ncccc1-n1c(=O)n(C)c2cnc3ccc(-c4cnc(N)c(C(F)(F)F)c4)cc3c21
Inquiry: Order the records, beginning with the lowest solubility thermodynamic and ending with the highest. Please respond by ranking the labels in the order requested.
Reply text: R, Q, P
(R: 13 µg/mL, Q: 27 µg/mL, P: 39 µg/mL)

(A) COc1ncc(-c2ccc3ncc4c(c3c2)n(-c2ccc(N3CC[C@H](O)C3)nc2C)c(=O)n4C)c(OC)n1
(B) CNc1ncc(-c2ccc3ncc4c(c3c2)n(-c2ccc(N3CC[C@H](O)C3)nc2C)c(=O)n4C)cc1C(F)(F)F
Inquiry: Field: lower solubility thermodynamic | Options: A / B Answer format: the label of the selected item.
Reply text: A

---

# targetUnderTest: PI3K delta (Homo sapiens, UniProt O00329)
# Construct: for the full-length p110-d subunit are generated and fused by overlapping PCR; His tag (C); made in house; host or cells: baculovirus BV1060; Tn5 (Trichoplusia ni) or TiniPro insect cells
# Sequence (O00329 with tags, fused parts or gaps limits assumed): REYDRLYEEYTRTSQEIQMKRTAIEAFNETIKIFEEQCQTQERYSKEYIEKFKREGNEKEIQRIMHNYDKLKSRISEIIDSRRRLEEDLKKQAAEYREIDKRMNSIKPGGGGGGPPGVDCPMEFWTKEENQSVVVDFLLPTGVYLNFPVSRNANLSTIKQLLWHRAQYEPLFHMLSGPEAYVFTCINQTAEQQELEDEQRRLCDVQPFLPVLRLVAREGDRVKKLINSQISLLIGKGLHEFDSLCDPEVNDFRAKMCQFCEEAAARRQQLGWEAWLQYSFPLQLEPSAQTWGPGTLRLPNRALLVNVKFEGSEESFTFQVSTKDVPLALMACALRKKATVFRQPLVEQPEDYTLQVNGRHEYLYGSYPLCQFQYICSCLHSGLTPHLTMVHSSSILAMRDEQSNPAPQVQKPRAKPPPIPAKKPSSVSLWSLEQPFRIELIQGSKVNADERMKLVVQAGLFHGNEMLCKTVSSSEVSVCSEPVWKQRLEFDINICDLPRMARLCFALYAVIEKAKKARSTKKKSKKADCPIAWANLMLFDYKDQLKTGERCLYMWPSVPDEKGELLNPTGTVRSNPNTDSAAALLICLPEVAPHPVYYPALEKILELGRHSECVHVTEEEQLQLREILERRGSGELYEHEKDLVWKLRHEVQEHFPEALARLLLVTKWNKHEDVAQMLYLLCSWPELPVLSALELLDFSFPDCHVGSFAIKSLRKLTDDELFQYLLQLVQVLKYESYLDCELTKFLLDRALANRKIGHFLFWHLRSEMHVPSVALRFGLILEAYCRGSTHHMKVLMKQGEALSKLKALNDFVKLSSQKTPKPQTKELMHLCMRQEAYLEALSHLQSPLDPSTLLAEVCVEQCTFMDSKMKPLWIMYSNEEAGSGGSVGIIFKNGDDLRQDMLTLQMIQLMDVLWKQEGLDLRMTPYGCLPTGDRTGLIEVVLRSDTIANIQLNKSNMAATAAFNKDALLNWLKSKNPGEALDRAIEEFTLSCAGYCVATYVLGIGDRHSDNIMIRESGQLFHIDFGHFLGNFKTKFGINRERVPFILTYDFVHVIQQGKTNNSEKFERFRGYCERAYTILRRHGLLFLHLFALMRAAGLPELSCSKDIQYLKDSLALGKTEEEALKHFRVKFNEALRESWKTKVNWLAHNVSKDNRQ
# measurementDescription: PI3K delta kinase assay (Kinase-Glo luminescence)
# Type: biochemical
# studyConditions: read-out: PI3Kdelta/IC50
pIC50: −log10 of the molar value.
metricName: pIC50

- Cc1ncccc1-n1c(=O)n(C)c2cnc3ccc(-c4cnc5c(ccn5C)c4)cc3c21: 7.24
- COc1ccc(-c2ccc3ncc4c(c3c2)n(-c2cccnc2OC)c(=O)n4C)cn1: 7.59
- COc1ncccc1-n1c(=O)n(C)c2cnc3ccc(-c4cnc(N(C)C)nc4)cc3c21: 7.07

(a) CN(C)c1ccc(-c2ccc3ncc4c(c3c2)n(-c2cccnc2)c(=O)n4C)cn1
(b) Cc1nc(F)ccc1-n1c(=O)n(C)c2cnc3ccc(-c4cnc(N)c(C(F)(F)F)c4)cc3c21
(c) Cc1nc(F)ccc1-n1c(=O)n(C)c2cnc3ccc(-c4cnc5c(ccn5C)c4)cc3c21
(d) CCOc1ncc(-c2ccc3ncc4c(c3c2)n(-c2ncccc2C)c(=O)n4C)cn1
Inquiry: Ascending sort, pIC50. Return the labels ranked in the requested order, please.
Reply text: d, a, c, b

---

# targetUnderTest: PI3K delta (Homo sapiens, UniProt O00329)
# Construct: for the full-length p110-d subunit are generated and fused by overlapping PCR; His tag (C); made in house; host or cells: baculovirus BV1060; Tn5 (Trichoplusia ni) or TiniPro insect cells
# measurementDescription: PI3K delta kinase assay (Kinase-Glo luminescence)
# Format: biochemical
# studyConditions: read-out: EPK_PI3Kdelta/IC50
metricName: IC50 (nM)

Some entries whose results are on file:
- Cc1nc(N2CCN(C)C(=O)C2)ccc1-n1c(=O)n(C)c2cnc3ccc(-c4cnc(N)c(C(F)(F)F)c4)cc3c21: 5
- CCNc1cc(-c2ccc3ncc4c(c3c2)n(-c2ccc(N3CCC3)nc2C)c(=O)n4C)cnc1CO: 17

(1) Cc1nc(F)ccc1-n1c(=O)n(C)c2cnc3ccc(-c4cnc(N)c(CO)c4)cc3c21
(2) CNc1ncc(-c2ccc3ncc4c(c3c2)n(-c2ccc(F)nc2C)c(=O)n4C)cc1C(F)(F)F
Inquiry: Two entries are listed, 1 and 2 . Which one carries the higher IC50? Please reply using the label of the selected record.
Reply text: 1
(1: 20 nM, 2: 3 nM)

---

# targetUnderTest: PI3K delta (Homo sapiens)
# Construct: for the full-length p110-d subunit are generated and fused by overlapping PCR; His tag (C); made in house; host or cells: baculovirus BV1060; Tn5 (Trichoplusia ni) or TiniPro insect cells
# measurementDescription: PI3K delta kinase assay (Kinase-Glo luminescence)
# Type: biochemical
# studyConditions: read-out: EPK_PI3Kdelta/IC50
metricName: IC50 (nM)

Examples with their reported IC50 follow.
- COCCOc1ccc(-n2c(=O)n(C)c3cnc4ccc(-c5cncc(N6CCC6)c5)cc4c32)c(C)n1: 101
- Cc1ccc(-n2c(=O)n(C)c3cnc4ccc(-c5cncc(NC(C)C)c5)cc4c32)c(C)n1: 46
- CCOc1ccc(-c2ccc3ncc4c(c3c2)n(-c2ccc(N(C)CCOC)nc2C)c(=O)n4C)cn1: 117

(1) CCN(C)c1ccc(-n2c(=O)n(C)c3cnc4ccc(-c5ccc(NC)nc5)cc4c32)c(C)n1
(2) CCNc1cc(-c2ccc3ncc4c(c3c2)n(-c2ccc(F)nc2C)c(=O)n4C)cnc1CO
Inquiry: Could you tell me which of 1 and 2 has the lower IC50 reading? When you have decided, please share the label of that item.
Reply text: 1

(P) CCNc1cc(-c2ccc3ncc4c(c3c2)n(-c2ccc(N3CC(O)C3)nc2C)c(=O)n4C)cnc1CO
(Q) CNc1ccc(-c2ccc3ncc4c(c3c2)n(-c2cnc(F)cc2C)c(=O)n4C)cn1
Inquiry: Compare the recorded IC50 of P and Q ; state which is larger. Selection: enter the item's label.
Reply text: Q

---

# targetUnderTest: PI3K delta (Homo sapiens, UniProt O00329)
# Construct: for the full-length p110-d subunit are generated and fused by overlapping PCR; His tag (C); made in house; host or cells: baculovirus BV1060; Tn5 (Trichoplusia ni) or TiniPro insect cells
# measurementDescription: PI3K delta kinase assay (Kinase-Glo luminescence)
# Format: biochemical
# studyConditions: read-out: EPK_PI3Kdelta/IC50
pIC50: −log10 of the molar value.
metricName: pIC50

Completed entries (count: 3):
* CNc1cncc(-c2ccc3ncc4c(c3c2)n(-c2cccnc2C)c(=O)n4C)c1 | 7.34
* COCc1ncc(-c2ccc3ncc4c(c3c2)n(-c2ccc(N3CCC3)nc2C)c(=O)n4C)cc1OC(C)C | 7.51
* Cc1nc(N2CC[C@H](O)C2)ccc1-n1c(=O)n(C)c2cnc3ccc(-c4cncc(OC(C)C)c4)cc3c21 | 7.41

(I) CCOCc1cc(-c2ccc3ncc4c(c3c2)n(-c2ccc(F)nc2C)c(=O)n4C)cnc1N
(II) CCOc1cc(-c2ccc3ncc4c(c3c2)n(-c2cccnc2C)c(=O)n4C)cnc1C
(III) COc1cc(-c2ccc3ncc4c(c3c2)n(-c2ccc(N3CC(F)(F)C3)nc2C)c(=O)n4C)cnc1CO
(IV) CNc1ncc(-c2ccc3ncc4c(c3c2)n(-c2ccc(C(F)(F)F)nc2C)c(=O)n4C)cc1COC
Inquiry: Falling order of pIC50, please. I would appreciate it if you listed the labels in the requested order.
Reply text: IV, I, II, III
(IV: 8.00, I: 7.43, II: 7.21, III: 6.61)
